# Fresh Weight values compiled below
test system: Heterozygous GAT-HRA corn; experiment: Preemergence herbicide application in greenhouse: fresh shoot weight and visual injury; type: in vivo; settings: preemergence, 200 g/ha; fresh shoots weighed 4 weeks after treatment; mean of four replications; untreated 47.0 g

# Compound, Units of measure, Fresh Weight
records = [
    ("CCOc1nc(F)cc2nc(S(=O)(=O)Nc3c(Cl)cccc3C(=O)OC)nn12 [Chloransulam-methyl]", "g", 44.9),
    ("CCS(=O)(=O)c1cccnc1S(=O)(=O)NC(=O)Nc1nc(OC)cc(OC)n1 [Rimsulfuron]", "g", 45.3),
    ("Cc1ccn2nc(S(=O)(=O)Nc3c(F)cccc3F)nc2n1 [Flumetsulam]", "g", 39.1),
    ("COC(=O)c1ccccc1S(=O)(=O)NC(=O)Nc1nc(C)nc(OC)n1 [Metsulfuron-methyl]", "g", 41.1),
    ("CC(C)C1(C)N=C(c2ncccc2C(=O)O)NC1=O (stereo not shown) [Imazapyr]", "g", 44.2),
    ("COc1cc(OC)nc(NC(=O)NS(=O)(=O)c2c(-c3nnn(C)n3)cnn2C)n1 [Azimsulfuron]", "g", 49.1),
    ("COC(=O)c1ccccc1CS(=O)(=O)NC(=O)Nc1nc(OC)cc(OC)n1 [Bensulfuron-methyl]", "g", 39.9),
    ("COC(=O)c1ccc(C(F)(F)F)nc1S(=O)(=O)NC(=O)Nc1nc(OC)cc(OC)n1 [Flupyrsulfuron-methyl Na^+, Flupyrsulfuron-methyl]", "g", 45.8),
    ("COc1nc(C)nc(NC(=O)NS(=O)(=O)c2ccccc2Cl)n1 [Chlorsulfuron]", "g", 48.4),
    ("COC(=O)c1ccccc1S(=O)(=O)NC(=O)Nc1nc(C)cc(C)n1 [Sulfometuron-methyl]", "g", 47.3),
]

----------
test system: parent elite stiff stalk inbred corn; assay: Preemergence herbicide application in greenhouse: fresh shoot weight and visual injury; type: in vivo; conditions: preemergence, 200 g/ha; 0% no injury, 100% plant death; mean of four replications

# Compound, % Visual Injury (%)
measured = [
    ("CCCOc1nn(C(=O)NS(=O)(=O)c2ccccc2C(=O)OC)c(=O)n1C [Propoxycarbazone Na^+, Propoxycarbazone]", 100),
    ("COc1cc(OC)nc(Sc2cccc(Cl)c2C(=O)[O-])n1.[Na+] [Pyrithiobac Na^+, Pyrithiobac]", 100),
    ("COc1cc(OC)nc(NC(=O)NS(=O)(=O)c2ncccc2OCC(F)(F)F)n1 [Trifloxysulfuron Na^+, Trifloxysulfuron]", 100),
    ("COC(=O)c1cccc(C)c1S(=O)(=O)NC(=O)Nc1nc(OCC(F)(F)F)nc(N(C)C)n1 [Triflusulfuron-methyl]", 100),
    ("COc1nn(C(=O)NS(=O)(=O)c2ccccc2OC(F)(F)F)c(=O)n1C [Flucarbazone Na^+, Flucarbazone]", 100),
    ("CCOc1nc(F)cc2nc(S(=O)(=O)Nc3c(Cl)cccc3C(=O)OC)nn12 [Chloransulam-methyl]", 3),
    ("COC(=O)c1ccc(C(F)(F)F)nc1S(=O)(=O)NC(=O)Nc1nc(OC)cc(OC)n1 [Flupyrsulfuron-methyl Na^+, Flupyrsulfuron-methyl]", 87),
    ("COC(=O)c1ccc(I)cc1S(=O)(=O)NC(=O)Nc1nc(C)nc(OC)n1 [Iodosulfuron-methyl Na^+, Iodosulfuron-methyl]", 92),
]
